- study-target: human proteinase 3 (Homo sapiens, UniProt P24158)
- Construct: purchased Elastin Products Company, USA
- Sequence (P24158 28-248): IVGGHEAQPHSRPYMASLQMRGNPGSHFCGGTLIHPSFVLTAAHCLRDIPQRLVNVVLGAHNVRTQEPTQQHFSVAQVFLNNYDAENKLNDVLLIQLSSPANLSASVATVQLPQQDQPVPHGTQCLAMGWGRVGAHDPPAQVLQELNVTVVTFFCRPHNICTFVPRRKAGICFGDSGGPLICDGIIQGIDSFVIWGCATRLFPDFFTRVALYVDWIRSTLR
- experimental-details: Inhibition of human proteinase 3 (substrate Boc-Ala-Ala-Nva-SBzl)
- Type: biochemical
- recorded-conditions: ratio of hPr3 IC50 to hNE IC50
*1 amine or outer side, *2 acyl side, *3 side chain or, on linkers, in order; H or OH if unused. Where a SMILES comes first, the peptide text is derived from it. [ ]: non-standard residue; d: D form. Oic = O=C(O)[C@@H]1C[C@@H]2CCCC[C@@H]2N1; X1 = NCCCC[C@@H](CCC(=O)[*:2])N[*:1]; Gly(octyl) = CCCCCCCC[C@H](N)C(=O)O; hTyr = N[C@@H](CCc1ccc(O)cc1)C(=O)O; Aad = N[C@@H](CCCC(=O)O)C(=O)O; hSer = N[C@@H](CCO)C(=O)O; Dab = NCC[C@H](N)C(=O)O

compound	reported-relation	hNE/hPr3 selectivity
CC[C@H](C)[C@@H]1NC(=O)[C@H](CO)NC(=O)[C@H](C)NC(=O)[C@H]([C@@H](C)O)NC(=O)[C@H](CCC(=O)O)NC(=O)[C@H](CCNC(=O)[C@@H](N)Cc2ccccc2)NC(=O)[C@@H]2CCCN2C(=O)[C@H]2CCCN2C(=O)[C@H](Cc2ccc(O)cc2)NC(=O)[C@H](CCCCN)NC(=O)[C@H](CCC(N)=O)NC(=O)[C@@H]2CCCN2C(=O)[C@@H]2CCCN2C1=O [Example 9] (cyclo([Dab](Phe)ETASIPPQKY[dP]P))	=	711
CC[C@H](C)[C@@H]1NC(=O)[C@H](CO)NC(=O)[C@H](C)NC(=O)[C@H]([C@@H](C)O)NC(=O)[C@H](CCc2ccc(O)cc2)NC(=O)[C@H](CCCNC(=N)N)NC(=O)[C@H](CCC(=O)O)NC(=O)[C@H]2CCCN2C(=O)[C@H]([C@@H](C)O)NC(=O)[C@H](CCCCN)NC(=O)[C@H](CCC(N)=O)NC(=O)[C@@H]2CCCN2C(=O)[C@@H]2CCCN2C1=O [Example 49] (cyclo(R[hTyr]TASIPPQKT[dP]E))	=	627
CCCCCCCC[C@@H]1NC(=O)[C@H](CCCCN)NC(=O)[C@@H](C(C)C)NC(=O)[C@H]([C@@H](C)O)NC(=O)[C@H](CCCCN)NC(=O)[C@H](CCC(N)=O)NC(=O)[C@@H]2CCCN2C(=O)[C@@H]2CCCN2C(=O)[C@H]([C@@H](C)CC)NC(=O)[C@H](CO)NC(=O)[C@H](C)NC(=O)[C@H]([C@@H](C)O)NC(=O)[C@H](CCC(=O)O)NC1=O [Example 22] (cyclo([Gly(octyl)]ETASIPPQKT[dV]K))	=	5677
CC[C@H](C)[C@@H]1NC(=O)[C@H](CO)NC(=O)[C@H](C)NC(=O)[C@H]([C@@H](C)O)NC(=O)[C@H](C(C)C)NC(=O)[C@H](CCCNC(=N)N)NC(=O)[C@@H]2CCCN2C(=O)[C@H]2CCCN2C(=O)[C@H]([C@@H](C)O)NC(=O)[C@H](CCCCN)NC(=O)[C@H](CCC(N)=O)NC(=O)[C@@H]2C[C@@H]3CCCC[C@@H]3N2C(=O)[C@@H]2CCCN2C1=O [Example 41] (cyclo(RVTASIP[Oic]QKT[dP]P))	>	12658
CCCCCCCC[C@@H]1NC(=O)[C@@H]2CCCN2C(=O)[C@H]2CCCN2C(=O)[C@H](CO)NC(=O)[C@H](CCCCN)NC(=O)[C@H](CCC(N)=O)NC(=O)[C@@H]2CCCN2C(=O)[C@@H]2CCCN2C(=O)[C@H]([C@@H](C)CC)NC(=O)[C@H](CO)NC(=O)[C@H](C)NC(=O)[C@H]([C@@H](C)O)NC(=O)[C@H](CCc2ccc(O)cc2)NC1=O [Example 47] (cyclo([Gly(octyl)][hTyr]TASIPPQKS[dP]P))	=	714
CCCCCCCC[C@@H]1NC(=O)[C@H](Cc2ccc(O)cc2)NC(=O)[C@@H](Cc2ccc(O)cc2)NC(=O)[C@H]([C@@H](C)O)NC(=O)[C@H](CCCCN)NC(=O)[C@H](CCC(N)=O)NC(=O)[C@@H]2CCCN2C(=O)[C@@H]2CCCN2C(=O)[C@H]([C@@H](C)CC)NC(=O)[C@H](CO)NC(=O)[C@H](C)NC(=O)[C@H]([C@@H](C)O)NC(=O)[C@H](CCC(=O)O)NC1=O [Example 24] (cyclo([Gly(octyl)]ETASIPPQKT[dY]Y))	=	664
CCCCCCCC[C@@H]1NC(=O)[C@@H]2CCCN2C(=O)[C@H]2CCCN2C(=O)[C@H](CCCC(N)=O)NC(=O)[C@H](CCCCN)NC(=O)[C@H](CCC(N)=O)NC(=O)[C@@H]2CCCN2C(=O)[C@@H]2CCCN2C(=O)[C@H]([C@@H](C)CC)NC(=O)[C@H](CO)NC(=O)[C@H](C)NC(=O)[C@H]([C@@H](C)O)NC(=O)[C@H](CCC(=O)O)NC1=O [Example 5] (cyclo([Gly(octyl)]ETASIPPQK[Aad](NH2)[dP]P))	=	237
CCCCCCCC[C@@H]1NC(=O)[C@@H]2CCCN2C(=O)[C@H]2CCCN2C(=O)[C@H](CCOC)NC(=O)[C@H](CCCCN)NC(=O)[C@H](CCC(N)=O)NC(=O)[C@@H]2CCCN2C(=O)[C@@H]2CCCN2C(=O)[C@H]([C@@H](C)CC)NC(=O)[C@H](CO)NC(=O)[C@H](C)NC(=O)[C@H]([C@@H](C)O)NC(=O)[C@H](CCC(=O)O)NC1=O [Example 1] (cyclo([Gly(octyl)]ETASIPPQK[hSer](Me)[dP]P))	=	150
CCCCCCCC[C@@H]1NC(=O)[C@H](CCC(=O)O)NC(=O)[C@@H](CCCCN)NC(=O)[C@H]([C@@H](C)O)NC(=O)[C@H](CCCCN)NC(=O)[C@H](CCC(N)=O)NC(=O)[C@@H]2CCCN2C(=O)[C@@H]2CCCN2C(=O)[C@H]([C@@H](C)CC)NC(=O)[C@H](CO)NC(=O)[C@H](C)NC(=O)[C@H]([C@@H](C)O)NC(=O)[C@H](CCC(=O)O)NC1=O [Example 29] (cyclo([Gly(octyl)]ETASIPPQKT[dK]E))	=	5305
CCCCCCCC[C@@H]1NC(=O)[C@@H]2CCCN2C(=O)[C@H]2CCCN2C(=O)[C@H]([C@@H](C)O)NC(=O)CC[C@H](CCCCN)NC(=O)[C@H](CCC(N)=O)NC(=O)[C@@H]2CCCN2C(=O)[C@@H]2CCCN2C(=O)[C@H]([C@@H](C)CC)NC(=O)[C@H](CO)NC(=O)[C@H](C)NC(=O)[C@H]([C@@H](C)O)NC(=O)[C@H](CCC(=O)O)NC1=O [Example 38] (cyclo([Gly(octyl)]ETASIPPQ[X1]T[dP]P))	=	535
